Cited source: ChEMBL document CHEMBL1201862

test system: Malme-3M; experiment: NCI tumour cell line growth inhibition, 48 h
The source made the active and inactive calls. Cut-off read from the data, not from the text of the source: active = GI50 up to about 1.1 µM and inactive = higher.
Field 'call' accepts yes (1) (active), no (0) (inactive)

// known answers, use as guide
{"molecule": "CC(=O)NNc1nc(C)c(C(/C=C/c2ccc([N+](=O)[O-])cc2)=N/N)s1", "class": "no (0)"}
{"molecule": "O=C(CCN1CCOCC1)Nc1ccc(F)cc1F", "class": "no (0)"}
{"molecule": "COc1cc2cc(C(=O)N3CC(CCl)c4ccc(O)cc43)[nH]c2c(OC)c1OC (stereo unspecified)", "class": "yes (1)"}
{"molecule": "CC(=O)OC1CC2Oc3ccc(C)cc3C(C)(O2)C1=O (stereo unspecified)", "class": "no (0)"}
{"molecule": "Clc1ccc(C2NN=C3c4ccccc4OCC32)cc1 (stereo unspecified)", "class": "no (0)"}

Next item in the queue.
Ask: Dear all, I need the recorded test outcome for CO/C=C(\Br)c1ccc2c(c1)OCO2 , thank you.
Result: no (0)
